# Index 2 (affinity index normalised to VH0/Vk0) annotations
Molecular target: T1, human c-Met antigen (Sino Biological) (human, UniProt P08581 25-932)
T1 construct: Bought antigen used as the analyte in SPR; also called hepatocyte growth factor receptor; HGFR
T1 sequence (P08581 25-932 limits assumed): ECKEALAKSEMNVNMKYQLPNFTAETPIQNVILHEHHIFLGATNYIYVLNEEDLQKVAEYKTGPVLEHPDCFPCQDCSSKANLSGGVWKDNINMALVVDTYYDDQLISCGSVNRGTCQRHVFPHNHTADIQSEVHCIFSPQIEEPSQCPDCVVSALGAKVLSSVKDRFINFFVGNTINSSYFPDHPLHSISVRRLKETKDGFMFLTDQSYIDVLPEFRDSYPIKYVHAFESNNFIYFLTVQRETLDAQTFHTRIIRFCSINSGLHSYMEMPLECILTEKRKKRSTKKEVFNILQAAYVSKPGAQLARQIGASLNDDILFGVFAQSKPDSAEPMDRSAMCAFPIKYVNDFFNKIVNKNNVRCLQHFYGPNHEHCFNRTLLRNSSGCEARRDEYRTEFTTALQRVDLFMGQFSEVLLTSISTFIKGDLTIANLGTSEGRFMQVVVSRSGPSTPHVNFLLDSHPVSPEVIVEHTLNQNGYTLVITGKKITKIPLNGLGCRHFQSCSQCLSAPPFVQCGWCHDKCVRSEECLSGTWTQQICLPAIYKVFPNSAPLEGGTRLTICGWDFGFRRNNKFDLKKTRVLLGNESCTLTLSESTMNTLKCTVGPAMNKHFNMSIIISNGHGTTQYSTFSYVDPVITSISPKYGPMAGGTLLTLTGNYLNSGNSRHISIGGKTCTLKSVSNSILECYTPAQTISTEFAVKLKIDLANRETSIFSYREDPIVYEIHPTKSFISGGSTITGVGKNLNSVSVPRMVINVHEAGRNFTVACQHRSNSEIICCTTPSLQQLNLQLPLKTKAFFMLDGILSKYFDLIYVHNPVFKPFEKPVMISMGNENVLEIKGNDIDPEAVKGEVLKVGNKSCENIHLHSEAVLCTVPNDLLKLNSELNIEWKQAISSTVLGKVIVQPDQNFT
Assay: derived from SPR KD; index 1 divided by the ratio of VH0/Vk0
measuredProperty: Index 2 (affinity index normalised to VH0/Vk0)

- VH4/Vk2 (antibody, V domains shown, CDR-grafted variant of the IgG1-based anti-cMet antibody 1E4; also called anti-cMet candidate antibody VH4/Vk2) VH: QVQLVQSGAEVKKPGSSVKVSCQGSGYSFPTHWITWVRQAPGQGLEWMGTIDPTDSYNFYGPSFQGRVTITADSSTSTAYMELSSLRSEDTAMYYCARDGNYYDSRGYYYDTFDMWGQGTLVTVSS VL: DIQMTQSPSSLSASVGDRVTITCRASQGISTYLAWYQQKPGKAPKLLIYSASTLESGVPSRFSGSGSGTDFTLTISSLQPEDFATYYCQQADSFPLTFGGGTKVEIK: 1.23
- VH6/Vk2 (antibody, V domains shown, CDR-grafted variant of the IgG1-based anti-cMet antibody 1E4; also called anti-cMet candidate antibody VH6/Vk2) VH: QVQLVQSGAEVKKPGSSVKVSCKASGYSFPTHWITWVRQAPGQGLEWMGTIDPTDSYNFYGPSFQGRVTITADKSTSTAYMELSSLRSEDTAVYYCARDGNYYDSRGYYYDTFDMWGQGTLVTVSS VL: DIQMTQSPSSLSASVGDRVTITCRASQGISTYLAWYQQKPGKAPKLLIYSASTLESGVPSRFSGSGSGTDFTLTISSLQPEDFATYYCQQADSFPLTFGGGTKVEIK: 1.18
- VH0/Vk0 (antibody, V domains shown, Derived from the IgG1-based 1E4 by a K to R change in the CH1 domain (G1m(3) allotype) and an S to T change in the light chain constant region (Km3 allotype); also called VMDO2 VH0/Vk0) VH: QVQLVQSGAEVKKPGESLRISCQGSGYSFPTHWITWVRQMPGKGLEWMGTIDPTDSYNFYGPSFQGHVTISADSSSSTAYLQWSSLKASDTAMYYCARDGNYYDSRGYYYDTFDMWGQGTLVTVSS VL: DIQMTQSPSFLSASVGDRVTITCRASQGISTYLAWYQQKPGTAPKLLIYSASTLESGVPSRFSGSGSGTDFTLTISSLQPEDSATYYCQQADSFPLTFGGGTKVEIK: 1
